// AC50 collected for Melanocortin receptor 4 (Homo sapiens, UniProt P32245)

Answered cases to consult:
NS(=O)(=O)Cc1noc2ccccc12 [ZONISAMIDE]; > 10 µM
CO[C@H]1C[C@@H]2CC[C@@H](C)[C@@](O)(O2)C(=O)C(=O)N2CCCC[C@H]2C(=O)O[C@H]([C@H](C)C[C@@H]2CC[C@@H](O)[C@H](OC)C2)CC(=O)[C@H](C)/C=C(\C)[C@@H](O)[C@@H](OC)C(=O)[C@H](C)C[C@H](C)/C=C/C=C/C=C/1C; > 30 µM
Cc1c(OCC(F)(F)F)ccnc1C[S+]([O-])c1nc2ccccc2[nH]1 (centres undefined); > 30 µM
CC(C)Cn1cnc2c(N)nc3ccccc3c21; > 10 µM
C#C[C@]1(O)CC[C@H]2[C@@H]3CCc4cc(OC5CCCC5)ccc4[C@H]3CC[C@@]21C; > 10 µM
CC=CC(=O)N(CC)c1ccccc1C; > 10 µM

**Query** Answer with the recorded AC50 for the molecule listed here: `C[C@H](CSC(=O)c1ccccc1)C(=O)N1C[C@@H](Sc2ccccc2)C[C@H]1C(=O)O`
**Result** > 10 µM

**Query** Answer with the recorded AC50 for the molecule listed here: `CN1C(C(=O)Nc2ccccn2)=C(O)c2sc(Cl)cc2S1(=O)=O`
**Result** > 30 µM

**Query** Answer with the recorded AC50 for the molecule listed here: CC(C)(C)NCC(O)COc1cccc2c1CCC(=O)N2 (centres undefined)
**Result** > 10 µM

**Query** Answer with the recorded AC50 for the molecule listed here: `CN(C)/N=N/c1[nH]cnc1C(N)=O`
**Result** > 10 µM

**Query** Answer with the recorded AC50 for the molecule listed here: `COc1ccc2c3c1O[C@H]1[C@@H](O)C=C[C@H]4[C@@H](C2)N(C)CC[C@@]341`
**Result** > 30 µM

**Query** Answer with the recorded AC50 for the molecule listed here: Cc1cc(O)c(C(=O)N[C@@H](C(=O)N[C@@H]2C(=O)N3C(C(=O)O)=C(CSc4nnnn4C)CS[C@H]23)c2ccc(O)cc2)cn1 [CEFPIRAMIDE]
**Result** > 30 µM

**Query** Answer with the recorded AC50 for the molecule listed here: C[N+]1(C)CCC(OC(=O)C(O)(c2ccccc2)C2CCCC2)C1 (centres undefined) [GLYCOPYRRONIUM BROMIDE]
**Result** > 30 µM

**Query** Answer with the recorded AC50 for the molecule listed here: Cn1nnc2c(C(N)=O)ncn2c1=O [TEMOZOLOMIDE]
**Result** > 30 µM

**Query** Answer with the recorded AC50 for the molecule listed here: `CCCc1nc(C(C)(C)O)c(C(=O)OCc2oc(=O)oc2C)n1Cc1ccc(-c2ccccc2-c2nnn[nH]2)cc1`
**Result** > 50 µM

**Query** Answer with the recorded AC50 for the molecule listed here: Cc1cccc(C(C)c2cnc[nH]2)c1C (centres undefined)
**Result** > 30 µM

---

// AC50 collected for Cholecystokinin receptor type A (Homo sapiens, UniProt P32238)

Answered cases to consult:
CCOc1ccc(Cc2cc([C@@H]3O[C@H](CO)[C@@H](O)[C@H](O)[C@H]3O)ccc2Cl)cc1; > 30 µM
O=C1C(O)=C([C@H]2CC[C@H](c3ccc(Cl)cc3)CC2)C(=O)c2ccccc21; > 30 µM
CCC(C(=O)O)c1ccc(N2Cc3ccccc3C2=O)cc1 (centres undefined); > 30 µM

**Query** # return AC50 of `CCOC(=O)[N-]c1cn(N2CCOCC2)n[o+]1` (system: Cholecystokinin receptor type A (Homo sapiens, UniProt P32238)); further: assay procedure not described here
Sequence (P32238 whole entry): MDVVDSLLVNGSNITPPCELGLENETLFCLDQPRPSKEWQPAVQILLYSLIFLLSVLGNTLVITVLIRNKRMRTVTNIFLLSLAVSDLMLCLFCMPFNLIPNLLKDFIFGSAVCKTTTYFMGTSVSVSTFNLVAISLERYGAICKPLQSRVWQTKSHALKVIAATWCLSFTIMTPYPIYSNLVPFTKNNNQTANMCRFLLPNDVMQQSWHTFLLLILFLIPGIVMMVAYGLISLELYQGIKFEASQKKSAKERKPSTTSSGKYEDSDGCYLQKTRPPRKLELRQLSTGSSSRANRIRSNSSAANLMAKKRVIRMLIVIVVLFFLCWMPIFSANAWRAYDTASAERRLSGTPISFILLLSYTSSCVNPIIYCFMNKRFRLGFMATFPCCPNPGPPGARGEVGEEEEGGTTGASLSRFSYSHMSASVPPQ
**Result** > 30 µM

**Query** # return AC50 of `C=CCC1(CC(C)C)C(=O)NC(=O)NC1=O` (system: Cholecystokinin receptor type A (Homo sapiens, UniProt P32238)); further: assay procedure not described here
**Result** > 10 µM

**Query** # return AC50 of `CC(C)(C)c1cc(C(C)(C)C)c(NC(=O)c2c[nH]c3ccccc3c2=O)cc1O` (system: Cholecystokinin receptor type A (Homo sapiens, UniProt P32238)); further: assay procedure not described here
**Result** > 30 µM

**Query** # return AC50 of O=C(O)[C@H](CC(=O)N1C[C@H]2CCCC[C@H]2C1)Cc1ccccc1 [MITIGLINIDE] (system: Cholecystokinin receptor type A (Homo sapiens, UniProt P32238)); further: assay procedure not described here
**Result** > 10 µM

**Query** # return AC50 of O=P1(NCCCl)OCCCN1CCCl (centres undefined) [IFOSFAMIDE] (system: Cholecystokinin receptor type A (Homo sapiens, UniProt P32238)); further: assay procedure not described here
**Result** > 30 µM

**Query** # return AC50 of `CO/N=C(\C(=O)N[C@@H]1C(=O)N2C(C(=O)O)=C(CSc3nnnn3C)CS[C@H]12)c1csc(N)n1` (system: Cholecystokinin receptor type A (Homo sapiens, UniProt P32238)); further: assay procedure not described here
**Result** > 30 µM

FYI, the data here is from ChEMBL document CHEMBL5291721.
